Recorded values, source PubChem BioAssay AID1775.

experiment: green autofluorescence of compounds with avidin beads – biophysical, 488/530 nm, flow cytometry, artefact control, profiling panel (AID 1775); conditions: compound fluorescence 488/530 nm, at 10 µM
The whole screen tested about 220,000 compounds, of which about 820 (0.37%) were called active. Cut-off read from the data, not from the text of the source: active = fluorescence above about 47; inactive = the rest. The entries come from a sample that favours actives as a whole.
Outcomes: Yes for active, No for inactive

Cc1nc2nc(SCC(=O)NCc3ccco3)nn2c(C)c1Cc1ccccc1 | No
Cc1ccnc(NC(=O)CCC(=O)N(CC(=O)NCCc2ccccc2)Cc2cccs2)c1 | No
O=C(NC1CC1)c1ccc2c(c1)NC(=O)c1ccccc1S2 | Yes
CC(NC(=O)c1ccc(N2CCNCC2)c([N+](=O)[O-])c1)C12CC3CC(CC(C3)C1)C2 (stereo not given) | No
O=C(CCc1ccccc1)NCCc1cccs1 | No
